TARGET SYSTEM: CDK2/CycE (Homo sapiens, UniProt P24941)
Construct: GST; purchased ProQinase GmbH (Freiburg, Germany); host or cells: insect cells (Sf9)
ASSAY PROCEDURE: CDK2/CycE kinase assay (Method 2a, TR-FRET)
Assay type: biochemical
CONDITION LABEL: 10 μM ATP
ASSAY METRIC: IC50

COMPOUND STRUCTURE STRING: Cc1cc(CS(C)(=O)=O)cc(Nc2ncc(F)c(-c3ccc(F)c4ccoc34)n2)c1
TARGET SYSTEM: CDK2/CycE (Homo sapiens, UniProt P24941)
VALUE OBSERVED: 57 nM

COMPOUND STRUCTURE STRING: CCS(=O)(=O)Cc1cccc(Nc2ncc(F)c(-c3ccc(F)c4ccoc34)n2)c1
TARGET SYSTEM: CDK2/CycE (Homo sapiens, UniProt P24941)
VALUE OBSERVED: 112 nM

COMPOUND STRUCTURE STRING: CS(=O)(=O)Cc1cccc(Nc2ncc(F)c(-c3ccc(F)c4ccoc34)n2)c1
TARGET SYSTEM: CDK2/CycE (Homo sapiens, UniProt P24941)
VALUE OBSERVED: 175 nM

###

TARGET SYSTEM: CDK9/CycT1 (Homo sapiens, UniProt P50750)
Construct: Recombinant full-length His-tagged human CDK9 and CycT1; His; purchased Invitrogen PV4131; host or cells: insect cells
Sequence (P50750 whole entry): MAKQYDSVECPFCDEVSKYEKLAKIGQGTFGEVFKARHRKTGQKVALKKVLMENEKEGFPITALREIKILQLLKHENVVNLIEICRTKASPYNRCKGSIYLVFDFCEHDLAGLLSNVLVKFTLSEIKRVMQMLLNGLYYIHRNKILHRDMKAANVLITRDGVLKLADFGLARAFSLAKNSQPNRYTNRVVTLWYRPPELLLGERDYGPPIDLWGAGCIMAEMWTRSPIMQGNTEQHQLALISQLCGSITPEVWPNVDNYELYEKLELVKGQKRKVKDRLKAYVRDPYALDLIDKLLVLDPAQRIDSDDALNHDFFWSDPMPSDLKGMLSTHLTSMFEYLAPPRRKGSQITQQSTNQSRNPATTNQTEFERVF
Sequence (O60563 whole entry partner): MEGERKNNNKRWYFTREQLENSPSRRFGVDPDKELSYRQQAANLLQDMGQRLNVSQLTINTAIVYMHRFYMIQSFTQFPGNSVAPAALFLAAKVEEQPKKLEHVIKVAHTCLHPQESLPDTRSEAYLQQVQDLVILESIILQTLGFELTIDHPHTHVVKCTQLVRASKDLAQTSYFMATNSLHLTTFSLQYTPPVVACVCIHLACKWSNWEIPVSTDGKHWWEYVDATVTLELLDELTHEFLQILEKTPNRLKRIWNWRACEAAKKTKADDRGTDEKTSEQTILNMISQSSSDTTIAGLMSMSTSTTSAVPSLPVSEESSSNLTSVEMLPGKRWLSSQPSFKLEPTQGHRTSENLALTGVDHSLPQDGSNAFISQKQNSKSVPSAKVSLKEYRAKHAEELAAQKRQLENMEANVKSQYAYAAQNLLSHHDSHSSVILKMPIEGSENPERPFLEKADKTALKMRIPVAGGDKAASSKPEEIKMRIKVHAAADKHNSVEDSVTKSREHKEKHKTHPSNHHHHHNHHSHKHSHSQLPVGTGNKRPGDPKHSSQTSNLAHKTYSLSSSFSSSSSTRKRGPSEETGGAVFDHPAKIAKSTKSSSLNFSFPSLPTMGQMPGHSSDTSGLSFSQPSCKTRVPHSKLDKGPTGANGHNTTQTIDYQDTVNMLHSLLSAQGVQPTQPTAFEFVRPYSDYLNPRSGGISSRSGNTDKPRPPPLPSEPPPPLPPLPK
ASSAY PROCEDURE: CDK9/CycT1 kinase assay (Method 1a, TR-FRET)
Format: biochemical
CONDITION LABEL: Method 1a, 10 μM ATP
pIC50: −log10 of the molar value.

COMPOUND STRUCTURE STRING: Cc1cc(CS(C)(=O)=O)cc(Nc2ncc(F)c(-c3ccc(F)c4ccoc34)n2)c1
pIC50: 8.70

COMPOUND STRUCTURE STRING: CS(=O)(=O)Cc1cccc(Nc2ncc(F)c(-c3ccc(F)c4ccoc34)n2)c1
pIC50: 8.40

COMPOUND STRUCTURE STRING: CCS(=O)(=O)Cc1cccc(Nc2ncc(F)c(-c3ccc(F)c4ccoc34)n2)c1
pIC50: 8.52

COMPOUND STRUCTURE STRING: CS(=O)(=O)Cc1cc(F)cc(Nc2ncc(F)c(-c3ccc(F)c4ccoc34)n2)c1
pIC50: 8.70

###

Tested on: HeLa cells
ASSAY PROCEDURE: Proliferation assay HeLa (Method 3, crystal violet)
Assay type: cell-based
CONDITION LABEL: Homo sapiens, 96 h, 4 days incubation, read-out: Inhibition of HeLa cell proliferation IC50
pIC50: −log10 of the molar value.
Recorded pIC50, one value per entry.
ASSAY METRIC: pIC50

COMPOUND STRUCTURE STRING: CS(=O)(=O)Cc1cc(F)cc(Nc2ncc(F)c(-c3ccc(F)c4ccoc34)n2)c1
VALUE OBSERVED: 7.00

COMPOUND STRUCTURE STRING: CCS(=O)(=O)Cc1cccc(Nc2ncc(F)c(-c3ccc(F)c4ccoc34)n2)c1
VALUE OBSERVED: 6.47

COMPOUND STRUCTURE STRING: Cc1cc(CS(C)(=O)=O)cc(Nc2ncc(F)c(-c3ccc(F)c4ccoc34)n2)c1
VALUE OBSERVED: 7.00

COMPOUND STRUCTURE STRING: CS(=O)(=O)Cc1cccc(Nc2ncc(F)c(-c3ccc(F)c4ccoc34)n2)c1
VALUE OBSERVED: 6.57
